Measured values drawn from ChEMBL document CHEMBL3885861 for this set.

Organism: Rattus norvegicus
experiment notes: Open TG-GATES - Regimen: Single
Type: toxicity, organism-based, Sprague-Dawley
Parameters: regimen Single, gender Male, age 6 weeks
condition: in vivo, po, 300 mg/kg, 6 h, tissue Blood, route gavage, dose level Middle
readout label: Ht (%)
Response body: numeric value in %, unit text excluded.

Consider the worked cases shown below.
compound: CCOC(=O)CCC(=O)O[C@H]1[C@H](O[C@@H]2[C@@H](C)[C@H](O[C@H]3C[C@@](C)(OC)[C@@H](O)[C@H](C)O3)[C@@H](C)C(=O)O[C@H](CC)[C@@](C)(O)[C@H](O)[C@@H](C)C(=O)[C@H](C)C[C@@]2(C)O)O[C@H](C)C[C@@H]1N(C)C [ERYTHROMYCIN ETHYLSUCCINATE]
unit spec: %
Ht: 39.8

compound: NC(N)=Nc1nc(CSCCC(N)=NS(N)(=O)=O)cs1
unit spec: %
Ht: 37.8

compound: COC1=CC(=O)C[C@@H](C)[C@]12Oc1c(Cl)c(OC)cc(OC)c1C2=O
unit spec: %
Ht: 38.1

Next, consider the following compound.
Input line: Given the compound COc1ccc2[nH]c([S+]([O-])Cc3ncc(C)c(OC)c3C)nc2c1 (centres undefined) , what is its reported Ht?
Output line: 38.3
